System: Hela
Test: in vitro killing activity
Assay type: cell-based, Human
Conditions: 120 h incubation
This section presents compounds with their documented pIC50 values.
Lab note: report pIC50 as minus log10 of the concentration in molar units, number only.

                                   compound  readout_number
0  CCc1c2c(nc3ccc(O)cc13)-c1cc3c(c(=O)n1C2)COC(=O)[C@]3(O)CC [SN38, reference compound]            8.18

For the next question, use this compound.
# input Determine its reported pIC50: CC[C@@]1(O)C(=O)OCc2c1cc1n(c2=O)Cc2c-1nc1cc(F)c(C)c3c1c2[C@@H](NC(=O)CO)CC3 [Dxd, reference compound]
# output 8.17

* * *

Test system: MP-1044-1
Test: in vitro killing activity
Type: cell-based, Dog
Conditions: Canis lupus familiaris; 72 time of incubation
measurement type: pIC50
Lab note: report pIC50 as minus log10 of the concentration in molar units, number only.

# input Determine its reported pIC50: CC[C@@]1(O)C(=O)OCc2c1cc1n(c2=O)Cc2c-1nc1ccc(N)c3c1c2CCS3
# output 8.06

# input Determine its reported pIC50: CC[C@@]1(O)C(=O)OCc2c1cc1n(c2=O)Cc2c-1nc1ccc(N)c3c1c2CCO3
# output 8.07

* * *

System: NCI-H69
Experiment: in vitro killing activity
Format: cell-based, Human
Conditions: Homo sapiens, NCI-H69; 120 time of incubation
This section presents molecules with their documented pIC50 values.
Lab note: report pIC50 as minus log10 of the concentration in molar units, number only.

>>> df
                              smiles_record  study_target  readout_number
0  CC[C@@]1(O)C(=O)OCc2c1cc1n(c2=O)Cc2c-1nc1ccc(N)c3c1c2CCS3       NCI-H69            9.52

For the next question, use this molecule.
# input Determine its reported pIC50: CC[C@@]1(O)C(=O)OCc2c1cc1n(c2=O)Cc2c-1nc1ccc(N)c3c1c2CCO3
# output 9.50

* * *

Test system: U-2-OS
Test: in vitro killing activity
Type: cell-based, Human
Details: Homo sapiens, U2OS; 120 time of incubation
measurement type: IC50 (nM)
Hi! Could you send only the number? It should be in nM, unit omitted.

# input Determine its reported IC50: CC[C@@]1(O)C(=O)OCc2c1cc1n(c2=O)Cc2c-1nc1ccc(N)c3c1c2CCO3
# output 1.41

# input Determine its reported IC50: CC[C@@]1(O)C(=O)OCc2c1cc1n(c2=O)Cc2c-1nc1ccc(N)c3c1c2CCS3
# output 2.65

* * *

Test system: DCOL1 (S+L−)
Assay: in vitro killing activity
Format: cell-based, Dog
Conditions: 120 time of incubation
Protocol: Different concentrations of compounds CPT-1, CPT-2, CPT-3, CPT-4, Dxd (MedChem Express, Cat #: HY-13631D) and SN38 (MedChem Express, Cat #: HY-13704) were used to treat different human tumor cell lines, mice tumor cell lines, rat tumor cell lines or dog tumor cell lines cultured in a cell culture plate, respectively. And the killing activity was detected after 72 h-120 h incubation by IncuCyte (Sartorius AG, IncuCyte® S3) or MicroplateReader.
measurement type: IC50 (nM)
Hi! Could you send only the number? It should be in nM, unit omitted.

# input # return IC50 for CC[C@@]1(O)C(=O)OCc2c1cc1n(c2=O)Cc2c-1nc1cc(F)c(C)c3c1c2[C@@H](NC(=O)CO)CC3 [Dxd, reference compound] , test system: DCOL1 (S+L−)
# output 9.05

* * *

Test system: NCI-N87
Assay: in vitro killing activity
Type: cell-based, Human
Details: Homo sapiens, NCI-N87; 120 time of incubation
measurement type: pIC50
Lab note: report pIC50 as minus log10 of the concentration in molar units, number only.

>>> print(df.to_string())
                                   compound  measurement_type  readout_number
0  CC[C@@]1(O)C(=O)OCc2c1cc1n(c2=O)Cc2c-1nc1ccc(N)c3c1c2CCS3 [CPT-1]             pIC50            8.92

For the next question, use this compound.
# input Determine its reported pIC50: CC[C@@]1(O)C(=O)OCc2c1cc1n(c2=O)Cc2c-1nc1ccc(N)c3c1c2CCO3 [CPT-2]
# output 8.83

* * *

System: NCI-H1781
Assay: in vitro killing activity
Format: cell-based, Human
Conditions: 120 time of incubation
Procedure: Different concentrations of compounds CPT-1, CPT-2, CPT-3, CPT-4, Dxd (MedChem Express, Cat #: HY-13631D) and SN38 (MedChem Express, Cat #: HY-13704) were used to treat different human tumor cell lines, mice tumor cell lines, rat tumor cell lines or dog tumor cell lines cultured in a cell culture plate, respectively. And the killing activity was detected after 72 h-120 h incubation by IncuCyte (Sartorius AG, IncuCyte® S3) or MicroplateReader.
measurement type: IC50 (pM)
Hi! Could you send only the number? It should be in pM, unit omitted.

# input # return IC50 for CC[C@@]1(O)C(=O)OCc2c1cc1n(c2=O)Cc2c-1nc1cc(F)c(C)c3c1c2[C@@H](NC(=O)CO)CC3 [Dxd, reference compound] , test system: NCI-H1781
# output 724

* * *

Test system: B16F10
Experiment: in vitro killing activity
Type: cell-based, Mice
Conditions: Mus musculus, B16-F10; 75 time of incubation
measurement type: IC50 (nM)
Hi! Could you send only the number? It should be in nM, unit omitted.

>>> print(df.to_string())
                              smiles_record  readout_number
0  CC[C@@]1(O)C(=O)OCc2c1cc1n(c2=O)Cc2c-1nc1ccc(N)c3c1c2CCO3            5.47

For the next question, use this compound.
# input Determine its reported IC50: CC[C@@]1(O)C(=O)OCc2c1cc1n(c2=O)Cc2c-1nc1ccc(N)c3c1c2CCS3
# output 3.29

* * *

Tested on: Hela
Assay: in vitro killing activity
Assay type: cell-based, Human
Settings: Homo sapiens, HeLa; 120 h incubation
Protocol: Different concentrations of compounds CPT-1, CPT-2, CPT-3, CPT-4, Dxd (MedChem Express, Cat #: HY-13631D) and SN38 (MedChem Express, Cat #: HY-13704) were used to treat different human tumor cell lines, mice tumor cell lines, rat tumor cell lines or dog tumor cell lines cultured in a cell culture plate, respectively. And the killing activity was detected after 72 h-120 h incubation by IncuCyte (Sartorius AG, IncuCyte® S3) or MicroplateReader.
measurement type: pIC50
Lab note: report pIC50 as minus log10 of the concentration in molar units, number only.

In [3]: df
Out[3]:
                              smiles_record  study_target  readout_number
0  CC[C@@]1(O)C(=O)OCc2c1cc1n(c2=O)Cc2c-1nc1ccc(N)c3c1c2CCS3          Hela            8.99

For the next question, use this compound.
# input Determine its reported pIC50: CC[C@@]1(O)C(=O)OCc2c1cc1n(c2=O)Cc2c-1nc1ccc(N)c3c1c2CCO3
# output 8.85

* * *

Test system: U-2-OS
Test: in vitro killing activity
Type: cell-based, Human
Settings: 120 time of incubation
Protocol: Different concentrations of compounds CPT-1, CPT-2, CPT-3, CPT-4, Dxd (MedChem Express, Cat #: HY-13631D) and SN38 (MedChem Express, Cat #: HY-13704) were used to treat different human tumor cell lines, mice tumor cell lines, rat tumor cell lines or dog tumor cell lines cultured in a cell culture plate, respectively. And the killing activity was detected after 72 h-120 h incubation by IncuCyte (Sartorius AG, IncuCyte® S3) or MicroplateReader.
measurement type: IC50

# input Determine its reported IC50: CC[C@@]1(O)C(=O)OCc2c1cc1n(c2=O)Cc2c-1nc1cc(F)c(C)c3c1c2[C@@H](NC(=O)CO)CC3 [Dxd, reference compound]
# output 0.0419 µM

* * *

Test system: A-431
Test: in vitro killing activity
Assay type: cell-based, Human
Conditions: Homo sapiens, A-431; 120 time of incubation
This section presents compounds with their documented pIC50 values.
Lab note: report pIC50 as minus log10 of the concentration in molar units, number only.

In [3]: df
Out[3]:
                                   compound  readout_number
0  CC[C@@]1(O)C(=O)OCc2c1cc1n(c2=O)Cc2c-1nc1ccc(N)c3c1c2CCS3 [CPT-1]            8.53

# input # return pIC50 for CC[C@@]1(O)C(=O)OCc2c1cc1n(c2=O)Cc2c-1nc1ccc(N)c3c1c2CCO3 [CPT-2] , test system: A-431
# output 8.55
